Where do the numbers come from? From ChEMBL document CHEMBL1817578.

testProtocol: Cmax in monkey at 3 mg/kg, po
Assay type: ADME, organism-based, Macaca mulatta
Parameters: dose 3 mg/kg, route oral
runParameters: rhesus monkey, in vivo
metric: Cmax (ng/mL)
Your answer should be a plain number; it is taken to be in ng/mL.

Prompt: Entry under review: Cn1c(=O)c2c(cc(N3CCC[C@@](C)(N)C3)n2Cc2cc(F)ccc2C#N)n(C)c1=O . Reported Cmax?
Completion: 77

* * *

testProtocol: Clearance in rat at 1 mg/kg, iv
Type: ADME, organism-based
Set-up: dose 1 mg/kg, route intravenous
runParameters: in vivo
metric: clearance
Answer format reminder: number followed by unit.

Prompt: What value of clearance has been recorded for this entry: Cn1c(=O)c2c(cc(N3CCC[C@@](C)(N)C3)n2Cc2cc(F)ccc2C#N)n(C)c1=O
Completion: 40 mL/min/kg

* * *

targetOfAssay: Cytochrome P450 1A2 (Homo sapiens, UniProt P05177)
Sequence (P05177 whole entry): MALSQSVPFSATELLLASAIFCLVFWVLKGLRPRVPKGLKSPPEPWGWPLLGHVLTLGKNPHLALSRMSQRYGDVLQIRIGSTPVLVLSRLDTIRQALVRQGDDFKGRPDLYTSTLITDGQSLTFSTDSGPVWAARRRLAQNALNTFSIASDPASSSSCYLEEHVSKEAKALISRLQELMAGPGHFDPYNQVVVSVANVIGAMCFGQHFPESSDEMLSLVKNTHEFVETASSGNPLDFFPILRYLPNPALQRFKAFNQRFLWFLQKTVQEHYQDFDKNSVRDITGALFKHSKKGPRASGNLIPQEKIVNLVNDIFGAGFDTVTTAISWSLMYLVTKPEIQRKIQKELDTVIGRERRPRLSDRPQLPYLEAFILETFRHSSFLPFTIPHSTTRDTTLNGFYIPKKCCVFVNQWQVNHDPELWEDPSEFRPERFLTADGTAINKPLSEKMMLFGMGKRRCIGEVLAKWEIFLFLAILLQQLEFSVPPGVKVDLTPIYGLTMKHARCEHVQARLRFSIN
pIC50: −log10 of the molar value.
metric: pIC50

Prompt: Given Cn1c(=O)c2c(cc(N3CCC[C@@](C)(N)C3)n2Cc2cc(F)ccc2C#N)n(C)c1=O , state its recorded pIC50.
Completion: < 4.30
